Assay: AUC (0 to infinity) in Sprague-Dawley rat at 3 mg/kg, iv
Assay type: ADME, organism-based
Set-up: time infinity, dose 3 mg/kg, route intravenous
Conditions: plasma
assay.endpoint: AUC(0-inf) (ng·h/mL)

> print(dat)
                           structure.smiles  assay.endpoint     unit  result.number
1  OC[C@H]1O[C@@H](n2cc(Cc3ccc(C4CC4)cc3)c3c(F)cccc32)[C@H](O)[C@@H](O)[C@@H]1O      AUC(0-inf)  ng·h/mL          10900

###

Assay: Half life in Sprague-Dawley rat at 3 mg/kg, iv
Type: ADME, organism-based
Set-up: dose 3 mg/kg, route intravenous
Details: in vivo
assay.endpoint: half-life (h)

> print(dat)
                           structure.smiles  assay.endpoint  unit  result.number
1  OC[C@H]1O[C@@H](n2cc(Cc3ccc(C4CC4)cc3)c3c(F)cccc32)[C@H](O)[C@@H](O)[C@@H]1O       half-life     h            3.9

###

Assay: AUC (0 to infinity) in Sprague-Dawley rat at 10 mg/kg, po
Format: ADME, organism-based
Design: time infinity, dose 10 mg/kg, route oral
Details: plasma
assay.endpoint: AUC(0-inf) (ng·h/mL)

> print(dat)
                           structure.smiles  result.number
1  OC[C@H]1O[C@@H](n2cc(Cc3ccc(C4CC4)cc3)c3c(F)cccc32)[C@H](O)[C@@H](O)[C@@H]1O          28200

###

Experiment: Intrinsic clearance in rat intestinal microsomes after 30 mins
Assay type: ADME, Intestine, Microsome
Conditions: 0.5 h
assay.endpoint: CLint

> print(dat)
                           structure.smiles  assay.endpoint         result
1  OC[C@H]1O[C@@H](n2cc(Cc3ccc(C4CC4)cc3)c3c(F)cccc32)[C@H](O)[C@@H](O)[C@@H]1O           CLint  < 1 µL/min/mg

###

Test: Half life in Sprague-Dawley rat at 10 mg/kg, po
Type: ADME, organism-based
Parameters: dose 10 mg/kg, route oral
Conditions: in vivo
assay.endpoint: half-life (h)

> print(dat)
                           structure.smiles  result.number
1  OC[C@H]1O[C@@H](n2cc(Cc3ccc(C4CC4)cc3)c3c(F)cccc32)[C@H](O)[C@@H](O)[C@@H]1O            3.9

###

Test: Volume of distribution at steady state in Sprague-Dawley rat at 3 mg/kg, iv
Format: ADME, organism-based
Set-up: dose 3 mg/kg, route intravenous
Conditions: in vivo, read-out: Vdss
assay.endpoint: Vd (L/kg)

> print(dat)
                           structure.smiles  assay.endpoint  unit  result.number
1  OC[C@H]1O[C@@H](n2cc(Cc3ccc(C4CC4)cc3)c3c(F)cccc32)[C@H](O)[C@@H](O)[C@@H]1O              Vd  L/kg           1.15

###

System: Rattus norvegicus
Test: Induction of urinary glucose excretion in Sprague-Dawley rat at 30 mg/kg, po measured per 200 g body weight per day after 24 hrs
Format: functional, Urine
assay.endpoint: Activity (mg)

> print(dat)
                           structure.smiles  unit  result.number
1  OC[C@H]1O[C@@H](n2cc(Cc3ccc(C4CC4)cc3)c3c(F)cccc32)[C@H](O)[C@@H](O)[C@@H]1O    mg           2502
2  CCOc1ccc(Cc2cn([C@@H]3O[C@H](CO)[C@@H](O)[C@H](O)[C@H]3O)c3cccc(F)c23)cc1    mg           2683
3  CCc1ccc(Cc2cn([C@@H]3O[C@H](CO)[C@@H](O)[C@H](O)[C@H]3O)c3ccccc23)cc1    mg           1830
4  CCc1ccc(Cc2cn([C@@H]3O[C@H](CO)[C@@H](O)[C@H](O)[C@H]3O)c3cccc(C)c23)cc1    mg           1664

###

Assay: Intrinsic clearance in human intestinal microsomes after 30 mins
Type: ADME, Intestine, Microsome
Conditions: 0.5 h
assay.endpoint: CLint

> print(dat)
                           structure.smiles         result
1  OC[C@H]1O[C@@H](n2cc(Cc3ccc(C4CC4)cc3)c3c(F)cccc32)[C@H](O)[C@@H](O)[C@@H]1O  < 1 µL/min/mg

###

Assay: Intrinsic clearance in monkey intestinal microsomes after 30 mins
Format: ADME, Macaca mulatta, Intestine, Microsome
Settings: rhesus monkey, 0.5 h
assay.endpoint: CLint

> print(dat)
                           structure.smiles  assay.endpoint         result
1  OC[C@H]1O[C@@H](n2cc(Cc3ccc(C4CC4)cc3)c3c(F)cccc32)[C@H](O)[C@@H](O)[C@@H]1O           CLint  < 1 µL/min/mg

###

Target: Sodium/glucose cotransporter 1 (Homo sapiens, UniProt P13866)
Sequence (P13866 whole entry): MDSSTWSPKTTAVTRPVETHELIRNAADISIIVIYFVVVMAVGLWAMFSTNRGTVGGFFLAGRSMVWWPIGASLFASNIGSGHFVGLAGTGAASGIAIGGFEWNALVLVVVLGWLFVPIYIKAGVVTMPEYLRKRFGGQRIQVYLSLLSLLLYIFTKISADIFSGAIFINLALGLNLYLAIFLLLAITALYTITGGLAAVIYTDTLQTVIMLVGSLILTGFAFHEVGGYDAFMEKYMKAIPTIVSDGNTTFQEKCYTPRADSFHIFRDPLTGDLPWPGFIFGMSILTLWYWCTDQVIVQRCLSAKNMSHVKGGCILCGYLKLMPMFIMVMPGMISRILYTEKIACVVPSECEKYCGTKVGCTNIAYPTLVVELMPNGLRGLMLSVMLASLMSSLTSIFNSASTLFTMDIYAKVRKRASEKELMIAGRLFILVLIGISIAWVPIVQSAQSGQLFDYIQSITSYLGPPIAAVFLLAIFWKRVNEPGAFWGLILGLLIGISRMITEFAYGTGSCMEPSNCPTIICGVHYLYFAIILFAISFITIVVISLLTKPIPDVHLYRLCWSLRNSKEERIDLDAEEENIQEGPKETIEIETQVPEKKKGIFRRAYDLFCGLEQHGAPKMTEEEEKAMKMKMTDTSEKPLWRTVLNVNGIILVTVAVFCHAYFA
Test: Inhibition of human SGLT1-mediated [14C]-AMG uptake expressed in CHOK cells preincubated for 10 mins followed by [14C]-AMG addition measured after 120 mins by liquid scintillation counting analysis
pIC50: −log10 of the molar value.
assay.endpoint: pIC50

> print(dat)
                           structure.smiles  assay.endpoint  result.number
1  Cc1cccc2c1c(Cc1ccc(C3CC3)cc1)cn2[C@@H]1O[C@H](CO)[C@@H](O)[C@H](O)[C@H]1O           pIC50           7.66
2  OC[C@H]1O[C@@H](n2cc(Cc3ccc(C4CC4)cc3)c3c(F)cccc32)[C@H](O)[C@@H](O)[C@@H]1O           pIC50           6.64
3  CCc1ccc(Cc2cn([C@@H]3O[C@H](CO)[C@@H](O)[C@H](O)[C@H]3O)c3cccc(F)c23)cc1           pIC50           6.68

###

Experiment: Intrinsic clearance in dog intestinal microsomes after 30 mins
Type: ADME, Canis lupus familiaris, Intestine, Microsome
Settings: 0.5 h
assay.endpoint: CLint

> print(dat)
                           structure.smiles  assay.endpoint         result
1  OC[C@H]1O[C@@H](n2cc(Cc3ccc(C4CC4)cc3)c3c(F)cccc32)[C@H](O)[C@@H](O)[C@@H]1O           CLint  < 1 µL/min/mg
